# Test system: 276233-004-R-J1-PDC KRAS spheroids with HUVEC/MSC, viability;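 also: cells exposed to agents for seven days before viability read; 100% = DMSO vehicle control wells and lower values mean fewer viable cells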
# ASSAY NOTES: Anticancer human tumor 276233-004-R-J1-PDC patient-derived colon adenocarcinoma cell line growth inhibition [KRAS2]
# RUN PARAMETERS: second compound 0.316 µM; first compound 0.316 µM; stronger effect = lower value
Recorded viability, T/C for the following compounds
Answer with a number only, understood to be in %.

Reference set (2 entries):
COMPOUND: COC(=O)c1ccc2c(C(=Nc3ccc(N(C)C(=O)CN4CCN(C)CC4)cc3)c3ccccc3)c(O)[nH]c2c1 + CC1OCC2(CCN(c3cnc(Sc4ccnc(N)c4Cl)c(N)n3)CC2)C1N
viability, T/C [%]: 59.2
--
COMPOUND: Cn1nccc1Nc1nccc(-c2cc3c(s2)C(C)(C)N(CCN2CCOCC2)C3=O)n1 + C=CC(=O)N1CCN(c2nc(=O)n(-c3c(C)ccnc3C(C)C)c3nc(-c4c(O)cccc4F)c(F)cc23)C(C)C1
viability, T/C [%]: 101

Let us move to another entry and its viability, T/C.
Prompt: Identify viability, T/C associated with the compound CC1OCC2(CCN(c3cnc(Sc4ccnc(N)c4Cl)c(N)n3)CC2)C1N (stereo not drawn) + COc1cc2nc(C)nc(NC(C)c3cc(N)cc(C(F)(F)F)c3)c2cc1OC1CCOC1
Response: 78.5
